- System: Lolium perenne (LOLPE)
- PROTOCOL_TEXT: Post-emergence herbicidal activity, glasshouse pot test
- Type: in vivo
- CONDITION_LABEL: Lolium perenne, rate 500 g/ha, evaluated after 14 or 15 days, read-out: Post-emergence activity, LOLPE (100=total damage to plant; 0=no damage to plant)
Outcome: Satisfied for pest or weed control at 500 g/ha of at least 90%; Not satisfied for anything lower.

- MOLECULE: "CCc1cc(C)cc(CC)c1C1=C(O)CC2(CCSCC2)CC1=O"
  CATEGORY: "Not satisfied"
- MOLECULE: "CCc1cc(C)cc(CC)c1C1=C(O)CC(CC(C)SC)CC1=O (stereo not shown)"
  CATEGORY: "Satisfied"
- MOLECULE: "COC1CCC2(CC1)CC(=O)C(c1cc(C)ccc1C)=C(OC(=O)CC(C)(C)C)C2 (stereo not shown)"
  CATEGORY: "Not satisfied"
- MOLECULE: "CCc1cc(C)cc(CC)c1C1=C(O)CC(CC(C)S(=O)(=O)CC)CC1=O (stereo not shown)"
  CATEGORY: "Not satisfied"
- MOLECULE: "CCSC(C)CC1CC(=O)C(c2c(C)cc(C)cc2CC)=C(O)C1 (stereo not shown)"
  CATEGORY: "Not satisfied"
- MOLECULE: "CCSC(C)CC1CC(=O)C(c2c(CC)cc(C)cc2CC)=C(O)C1 (stereo not shown)"
  CATEGORY: "Satisfied"
- MOLECULE: "Cc1cc(C)c(C2=C(O)CC3(CCOCC3)CC2=O)c(C)c1"
  CATEGORY: "Not satisfied"
- MOLECULE: "CCCSC(C)CC1CC(=O)C(c2c(C)cc(C)cc2C)=C(O)C1 (stereo not shown)"
  CATEGORY: "Not satisfied"
- MOLECULE: "CSC(C)CC1CC(=O)C(c2c(C)cc(C)cc2C)=C(O)C1 (stereo not shown)"
  CATEGORY: "Not satisfied"
- MOLECULE: "CCc1cc(C)cc(C)c1C1=C(O)CC(CC(C)SC)CC1=O (stereo not shown)"
  CATEGORY: "Satisfied"
- MOLECULE: "CCc1cc(C)cc(CC)c1C1=C(OC(=O)C(C)(C)C)CC(C(C)(C)SC)CC1=O (stereo not shown)"
  CATEGORY: "Satisfied"
- MOLECULE: "CCc1ccc(-c2ccc(Cl)cc2)cc1C1=C(O)CC2(CCOCC2)CC1=O"
  CATEGORY: "Not satisfied"
- MOLECULE: "CCc1cc(C)cc(CC)c1C1=C(O)CC(CC(C)S(C)(=O)=O)CC1=O (stereo not shown)"
  CATEGORY: "Not satisfied"

====

- Tested on: Setaria faberi (SETFA)
- PROTOCOL_TEXT: Pre-emergence herbicidal activity, glasshouse pot test
- Format: in vivo
- CONDITION_LABEL: Setaria faberi, 480 h, rate 500 g/ha, evaluated after 20 days, read-out: Pre-emergence activity, SETFA (100=total damage to plant; 0=no damage to plant)
- Protocol: Monocotyledonous and dicotyledonous test plants were sown in sterilised standard soil in pots. […] The test plants were then grown in a greenhouse under optimum conditions until, 14 or 15 days later for post-emergence and 20 days for pre-emergence, the test was evaluated (100=total damage to plant; 0=no damage to plant). […]
REPORTED_METRIC: pest or weed control at 500 g/ha (%)

- MOLECULE: "CCc1cc(C)cc(CC)c1C1=C(O)CC(C2(SC)CCC2)CC1=O (centres unmarked)"
  NUMERIC_VALUE: 100
- MOLECULE: "CCc1cc(CC)c(C2=C(OC(=O)C(C)(C)C)CC3(CCOCC3)CC2=O)c(CC)c1"
  NUMERIC_VALUE: 100
- MOLECULE: "CCc1cc(C)cc(CC)c1C1=C(OC(=O)C2CC2)CC2(CCOCC2)CC1=O"
  NUMERIC_VALUE: 100
- MOLECULE: "CCc1cc(C)cc(CC)c1C1=C(O)CC(COCOC)CC1=O (centres unmarked)"
  NUMERIC_VALUE: 70
- MOLECULE: "CCOCOC1=C(c2c(CC)cc(C)cc2CC)C(=O)CC2(CCOCC2)C1"
  NUMERIC_VALUE: 100
- MOLECULE: "CCc1cc(C)cc(CC)c1C1=C(OC(=O)Cc2ccc(F)cc2)CC2(CCOCC2)CC1=O"
  NUMERIC_VALUE: 100
- MOLECULE: "CCCCCCCCCCCC(=O)OC1=C(c2c(CC)cc(C)cc2CC)C(=O)CC2(CCOCC2)C1"
  NUMERIC_VALUE: 100
- MOLECULE: "CCc1cc(C)cc(C)c1C1=C(O)CC(CCSC)CC1=O (centres unmarked)"
  NUMERIC_VALUE: 80

Hey, just so you know, these numbers are from patent US8084649B2.
